Target: T1, 4H918-bA
T1 chain: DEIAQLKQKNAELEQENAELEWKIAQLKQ
Test: two-hybrid library CCNG1;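 also: natural log of median RNA to DNA barcode read ratio; higher means stronger binding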
Please respond with reported interaction score for every item in the list.
Numbers only.

Use these answered entries as a reference point.
>>> result("DEIAQLEQENAELEQKIAELKWEIAQLKQ [4H170-bA]")
0.927
>>> result("DENAQLKQKIAELEQKIAELEWENAQLKQ [4H1828-bA]")
-0.412
>>> result("DKIAQLEQKNAELEQEIAELKWEIAQLKQ [4H2442-bA]")
-1.46
>>> result("DENAQLEQEIAELEQKNAELKWEIAQLEQ [4H1081-bA]")
-0.671

Take each entry in turn and give its interaction score.
1. DEIAQLKQKIAELKQENAELEWKNAQLEQ [4H855-bA]
2. DEIAQLKQENAELEQKIAELKWKNAQLEQ [4H687-bA]
3. DENAQLEQENAELKQKIAELKWEIAQLEQ [4H1257-bA]
4. DKNAQLKQKIAELKQENAELEWKIAQLKQ [4H3926-bA]

[-1.16, -0.947, -0.431, -0.539]
